# study_system: EP300 (P300(1048-1664)) (Homo sapiens)
# Construct: P300(1048-1664)
# Sequence (Q09472 1048-1664): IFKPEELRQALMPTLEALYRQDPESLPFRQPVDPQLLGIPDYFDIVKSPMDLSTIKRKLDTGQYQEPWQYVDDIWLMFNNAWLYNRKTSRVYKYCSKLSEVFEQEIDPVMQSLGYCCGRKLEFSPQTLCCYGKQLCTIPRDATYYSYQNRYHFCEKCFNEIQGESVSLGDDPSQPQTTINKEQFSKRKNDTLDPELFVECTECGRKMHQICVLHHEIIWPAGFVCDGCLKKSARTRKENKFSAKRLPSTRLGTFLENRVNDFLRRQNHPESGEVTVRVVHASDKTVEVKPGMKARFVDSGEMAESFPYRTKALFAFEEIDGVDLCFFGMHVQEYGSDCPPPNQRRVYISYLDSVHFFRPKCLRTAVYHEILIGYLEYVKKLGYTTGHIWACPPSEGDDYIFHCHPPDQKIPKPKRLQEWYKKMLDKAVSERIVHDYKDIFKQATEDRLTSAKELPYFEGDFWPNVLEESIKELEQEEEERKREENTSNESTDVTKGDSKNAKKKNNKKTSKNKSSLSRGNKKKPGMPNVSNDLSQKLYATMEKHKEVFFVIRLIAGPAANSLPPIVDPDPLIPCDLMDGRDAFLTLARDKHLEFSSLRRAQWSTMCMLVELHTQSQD
# experiment_notes: Biochemical assay for EP300, SAMDI
# condition_set: EP300, SAMDI; read-out: EP300 Biochemistry IC50
pIC50: −log10 of the molar value.
measured_quantity: pIC50

Example cases with answers are listed next.
[
  {
    "compound": "CCn1ncc(CN(C)C(=O)c2cc(-c3ccc(OCC(O)CNC)c(C)n3)nc3ccc(COC)cc23)c1C (stereo not drawn) [Compound 496]",
    "study_system": "EP300 (P300(1048-1664)) (Homo sapiens)",
    "measured_quantity": "pIC50",
    "observed_measurement": 7.22
  },
  {
    "compound": "CCn1ncc(CN(C)C(=O)c2nc(-c3cc(C(=O)NC)n(C)n3)nc3ccc(COC)cc23)c1C [Compound 630]",
    "study_system": "EP300 (P300(1048-1664)) (Homo sapiens)",
    "measured_quantity": "pIC50",
    "observed_measurement": 7.14
  },
  {
    "compound": "CCn1ncc(CN(C)C(=O)c2nc(-c3ccnc(N)c3)nc3ccc(Cl)cc23)c1C [Compound 77]",
    "study_system": "EP300 (P300(1048-1664)) (Homo sapiens)",
    "measured_quantity": "pIC50",
    "observed_measurement": 5.89
  },
  {
    "compound": "CCc1nn(C)c(CN(C)C(=O)c2cc(-c3ccc(NCCNC)c(C)n3)nc3ccc(Cl)cc23)c1C [Compound 586]",
    "study_system": "EP300 (P300(1048-1664)) (Homo sapiens)",
    "measured_quantity": "pIC50",
    "observed_measurement": 4.63
  },
  {
    "compound": "CCc1noc(C(C)N(C)C(=O)c2nc(-c3ccc(NCCN(C)C)c(C)c3)nc3ccc(Cl)cc23)c1C (stereo not drawn) [Compound 606]",
    "study_system": "EP300 (P300(1048-1664)) (Homo sapiens)",
    "measured_quantity": "pIC50",
    "observed_measurement": 7.85
  }
]

P. CCc1nc(-c2cc(C(=O)N(C)Cc3cnn(CC)c3C)c3cc(COC)ccc3n2)ccc1NCCNC [Compound 595]
Q. CCn1ncc(CN(C)C(=O)c2cc(-c3cc(C(=O)NC)n(C)n3)nc3ccc(COC)cc23)c1C [Compound 520]
R. CCn1ncc(CN(C)C(=O)c2cc(-c3ccc(OCCCO)cn3)nc3ccc(Cl)cc23)c1C [Compound 166]
S. CCc1noc(CN(C)C(=O)c2cc(-c3ccc(NC4CN(C)C4)c(C)n3)nc3ccc(Cl)cc23)c1C [Compound 613]
T. CCn1ncc(CN(C)C(=O)c2nc(-c3cc4[nH]ncc4nc3C)nc3ccc(Cl)cc23)c1C [Compound 528]
Query string: Please give the order of these compounds when sorted by pIC50, largest value leading. When ranking, write the labels in the order the request describes.
Result string: S, Q, P, T, R
